# System: human SMAD7 mRNA
# assay: Antisense inhibition of human SMAD7 mRNA expression in Hep3B cells by 3-10-3 cEt gapmers, 10,000 nM, electroporation (Example 2)
# Assay type: cell-based
# condition.description: Hep3B cells, electroporation with 10,000 nM antisense oligonucleotide, approximately 24 hours, SMAD7 mRNA by RT-PCR (RTS5062), relative to untreated control cells
Strand notation (5' to 3'): a small letter for the sugar, then the base; units joined by * are phosphorothioate-linked, units joined directly phosphodiester-linked; [ ] holds rarer units or linkages, { } end groups; capitals alone tell only the bases. k = constrained ethyl (cEt); [5mC] = 5-methylcytosine; d = 2'-deoxy (DNA)
Short version: % Inhibition at least 30% is t, less is f.

1. 799867 (k[5mC]*kT*k[5mC]*d[5mC]*dA*dA*dT*d[5mC]*dT*dG*dG*d[5mC]*dT*kG*kG*kT; antisense) [compound 799867] : f
2. 799473 (antisense kT*kA*kT*d[5mC]*d[5mC]*d[5mC]*dA*dT*dG*dG*d[5mC]*dT*d[5mC]*kT*k[5mC]*kA) [compound 799473] : t
3. 798816 (k[5mC]*k[5mC]*kA*d[5mC]*dG*d[5mC]*dA*d[5mC]*d[5mC]*dA*dG*dT*dG*kT*kG*kA; antisense) [compound 798816] : f
4. 798664 (kG*kG*k[5mC]*d[5mC]*dT*dG*d[5mC]*dG*d[5mC]*dT*d[5mC]*d[5mC]*dG*kG*k[5mC]*kT; antisense) [compound 798664] : f
5. 830106 (k[5mC]*kA*kT*dT*dA*dA*dG*d[5mC]*d[5mC]*d[5mC]*dG*d[5mC]*dT*k[5mC]*kT*k[5mC]; antisense) [compound 830106] : t

Kindly determine if % Inhibition recorded for 798693 (antisense kG*k[5mC]*k[5mC]*dG*dG*dG*d[5mC]*dG*d[5mC]*dA*d[5mC]*dG*dG*k[5mC]*kT*k[5mC]) [compound 798693] is above or exactly 30%.
f

Further, for 830073 (kT*k[5mC]*kA*dG*dA*dT*d[5mC]*dA*dA*dA*dG*dG*dT*kA*kA*kG; antisense) [compound 830073] ?
t

Entry to check: 830178 (antisense kA*k[5mC]*kG*dA*d[5mC]*dA*dG*d[5mC]*d[5mC]*dT*dG*dG*dA*kG*kA*k[5mC]) [compound 830178]
t

Next entry: 800043 (kT*kG*k[5mC]*d[5mC]*dA*dG*dG*d[5mC]*d[5mC]*dT*dG*dT*d[5mC]*kA*kG*k[5mC]; antisense) [compound 800043]
t

And what about the substance 830108 (kT*kT*k[5mC]*dA*dT*dT*dA*dA*dG*d[5mC]*d[5mC]*d[5mC]*dG*k[5mC]*kT*k[5mC]; antisense) [compound 830108] ?
t

Another substance to look at: 799490 (antisense kT*kT*kA*dA*dA*dT*dG*dG*dT*dG*dT*dA*dT*kA*k[5mC]*k[5mC]) [compound 799490]
f

Repeat with 830098 (kA*kG*kA*d[5mC]*dA*dA*dA*d[5mC]*d[5mC]*dT*dT*d[5mC]*d[5mC]*kG*kA*kA; antisense) [compound 830098]
t

* * *

# assay: Hematology assays after subcutaneous administration in beagle dogs (Example 8)
# Type: in vivo
# condition.description: 30 mg/kg subcutaneous days 1, 3, 5, 8, 15, 22, 29
I'd appreciate it if you could supply MCH values for the items below.
Numbers only, in pg.

1. 790615 (CCAATGAGAATGCTTC; 3-10-3 cEt gapmer, further chemistry not given here) [compound 790615] : 21.9
2. 798781 (CGTAAGATTCACAGCA; 3-10-3 cEt gapmer, further chemistry not given here) [compound 798781] : 22.3

Okay, here is my list. What is MCH for each of these?
1. 829994 (GGAGGCAGGGCCGCGA; 3-10-3 cEt gapmer, further chemistry not given here) [compound 829994]
2. 830025 (antisense TTTGTAAATCGAAAGC; 3-10-3 cEt gapmer, further chemistry not given here) [compound 830025]
3. 830037 (antisense CTATTGGCTGATCTGG; 3-10-3 cEt gapmer, further chemistry not given here) [compound 830037]
4. 830121 (AGAATCAAGCCCTGGC; 3-10-3 cEt gapmer, further chemistry not given here) [compound 830121]

[23.2, 21.7, 22.1, 21.7]

* * *

Please provide measured % inhibition of SMAD7 mRNA expression for the entries that follow.
# Tested on: human SMAD7 mRNA
# assay: Dose-dependent inhibition of human SMAD7 mRNA expression in Hep3B cells (Example 3, Study 1 and 2)
# Format: cell-based
# condition.description: 6670.0 nM, electroporation, approximately 16 hours, Study 2
Strand notation (5' to 3'): a small letter for the sugar, then the base; units joined by * are phosphorothioate-linked, units joined directly phosphodiester-linked; [ ] holds rarer units or linkages, { } end groups; capitals alone tell only the bases. e = 2'-O-(2-methoxyethyl) (MOE); k = constrained ethyl (cEt); [5mC] = 5-methylcytosine; d = 2'-deoxy (DNA)
Answers are plain numbers, in %.

Below are worked cases with known answers.
1. 771576 (antisense eG*eG*eG*e[5mC]*eA*dG*dG*dA*dG*dA*dG*dA*d[5mC]*dA*d[5mC]*e[5mC]*eG*e[5mC]*eT*eT) [compound 771576] : 23
2. 798733 (antisense k[5mC]*kG*k[5mC]*dG*dG*d[5mC]*dT*dG*dG*d[5mC]*dG*dG*dG*kT*kG*kG) [compound 798733] : 88
3. 801040 (antisense kG*kT*k[5mC]*dA*dT*dG*dA*dA*dA*dG*dA*dT*dT*k[5mC]*kT*kT) [compound 801040] : 60

Could you report % inhibition of SMAD7 mRNA expression for every entry in the following list?
1. 799674 (antisense kG*kA*kT*d[5mC]*dA*d[5mC]*dA*dA*dT*dT*d[5mC]*d[5mC]*dA*kA*kG*k[5mC]) [compound 799674]
2. 799402 (antisense kG*kG*kT*d[5mC]*dA*d[5mC]*dT*dG*dT*dT*d[5mC]*dT*d[5mC]*kT*k[5mC]*kT) [compound 799402]
3. 829942 (kG*k[5mC]*kA*dT*d[5mC]*dT*dG*dG*dA*d[5mC]*dA*dG*dT*k[5mC]*kA*kG; antisense) [compound 829942]
4. 830170 (antisense kG*k[5mC]*kT*d[5mC]*dT*dG*dT*dT*dT*dG*dG*dA*d[5mC]*kA*kA*kG) [compound 830170]
5. 799904 (antisense kA*k[5mC]*kT*d[5mC]*dA*dG*dA*dG*d[5mC]*dA*dG*d[5mC]*dT*k[5mC]*kT*k[5mC]) [compound 799904]
6. 829980 (kT*kT*kG*dA*dT*dA*dT*dT*dT*dA*dG*d[5mC]*dT*kG*kT*k[5mC]; antisense) [compound 829980]
7. 830095 (kT*kG*kA*dG*dT*dA*dA*dA*d[5mC]*dA*dA*dT*dA*k[5mC]*k[5mC]*k[5mC]; antisense) [compound 830095]
8. 799471 (antisense k[5mC]*kA*k[5mC]*dA*dG*dA*dA*dA*dA*dG*d[5mC]*dT*d[5mC]*k[5mC]*kG*k[5mC]) [compound 799471]

1. 64
2. 13
3. 84
4. 54
5. 23
6. 79
7. 42
8. 14

For every item in the list below, what is its measured % inhibition of SMAD7 mRNA expression?
1. 830168 (antisense kA*kT*kG*d[5mC]*dT*dT*dT*dT*dA*d[5mC]*dA*d[5mC]*dA*k[5mC]*k[5mC]*k[5mC]) [compound 830168]
2. 790616 (k[5mC]*kT*kA*dA*dA*dT*dT*dT*d[5mC]*d[5mC]*dA*dA*dT*kG*kA*kG; antisense) [compound 790616]

65
26

Hi! Can you tell me % inhibition of SMAD7 mRNA expression for each of these substances?
1. 799755 (antisense kG*kA*kA*dA*dG*dT*dT*dA*d[5mC]*dA*dG*dA*dA*k[5mC]*kT*k[5mC]) [compound 799755]
2. 799564 (k[5mC]*kA*kG*dA*dT*dA*dA*d[5mC]*dA*dG*dA*dG*dT*kA*kT*kA; antisense) [compound 799564]

1: 66; 2: 60

I would be grateful if you could provide % inhibition of SMAD7 mRNA expression for each of the following entries.
1. 799858 (kG*kT*kA*dA*dT*dT*dT*dA*dG*d[5mC]*dA*dA*dT*kT*k[5mC]*k[5mC]; antisense) [compound 799858]
2. 799556 (kA*k[5mC]*kA*dA*d[5mC]*dA*dA*dT*dG*d[5mC]*dT*d[5mC]*dT*kG*kG*k[5mC]; antisense) [compound 799556]
3. 799605 (k[5mC]*k[5mC]*kA*dA*dT*dA*dA*dA*dG*dT*dT*d[5mC]*d[5mC]*k[5mC]*kT*kT; antisense) [compound 799605]

[48, 71, 51]

Values were extracted from patent US10517889B2.
